Test system: MDA-MB-468 breast
assay_remarks: NCI tumour cell line growth inhibition, 48 h; in the data active means GI50 below about 0.43 µM; inactive means the rest
Outcome (select one): YES = active, NO = inactive

[[record]]
compound = "COc1cc2c3c(n(CCCN4CCCC4)c(=O)c2cc1OC)-c1cc2c(cc1C3=O)OCO2"
group_label = "NO"

[[record]]
compound = "CC1Cc2cc(O)ccc2C2[C@@H]1C1CC[C@H](O)[C@@]1(C)C[C@@H]2O[N+](=O)[O-] (some centres undefined)"
group_label = "NO"

[[record]]
compound = "CCc1ccc(Nc2cc(C)nc3nc(C)nn23)cc1"
group_label = "NO"


### Prompt Which outcome was entered for the compound `C[C@@]1(N2C(=O)OC[C@@H]2c2ccccc2)C(=O)N([C@H](CC(=O)N2CCC(N3CCCCC3)CC2)C(=O)NCc2cccc(C(F)(F)F)c2)[C@@H]1/C=C/c1ccccc1` in this test?
### Response NO

* * *

System: MDA-MB-468 breast
assay_remarks: NCI tumour cell line growth inhibition, 48 h
Readings of TGI for the listed compounds
Give the value in µM but do not write µM after it.

Past entries and their recorded results:
[[record]]
mol_smiles = "COc1cc2c3c(n(CCCN4CCCC4)c(=O)c2cc1OC)-c1cc2c(cc1C3=O)OCO2"
study_system = "MDA-MB-468 breast"
measured_value = 3.17

[[record]]
mol_smiles = "CC[C@@]1(O)C(=O)OCc2c1cc1n(c2=O)Cc2c-1nc1ccccc1c2/C=N/OC(C)(C)C"
study_system = "MDA-MB-468 breast"
measured_value = 0.0592


### Prompt TGI for `CC(=O)Nc1sc2c(c1-c1nc3ccccc3s1)CNC2` ?
### Response 7.24

### Prompt Now consider `COc1ccc(Cn2c(Br)c3c(c2-c2cc(OC)c(OC)c(OC)c2)CCc2sc(NC(C)=O)nc2-3)cc1` and answer again.
### Response 46.3

* * *

Test system: MDA-MB-468 breast
assay_remarks: NCI tumour cell line growth inhibition, 48 h; in the data active = GI50 below about 0.43 µM; inactive = the rest
Outcome (select one): TRUE = active, FALSE = inactive

Examples with answers:
[[record]]
compound = "Cc1ccc(NC(=O)c2nc(S(C)=O)oc2-c2ccc(F)cc2)cc1Nc1nccc(-c2cccnc2)n1 (stereo not given)"
group_label = "FALSE"

[[record]]
compound = "C/C(=N\\NC(=O)c1ccncc1)c1ccc(O)cc1O"
group_label = "FALSE"

[[record]]
compound = "COc1cc(C2C(C#N)=C(N)Oc3cc(O)ccc32)cc(OC)c1OC (stereo not given)"
group_label = "TRUE"

[[record]]
compound = "O=C1c2cccnc2C(=O)c2c1c(C(=O)OCCN1CCOCC1)c1ccccn21"
group_label = "FALSE"


// switching to the query compound
### Prompt Which outcome was entered for the compound `COc1ccc(Cn2c(Br)c3c(c2-c2cc(OC)c(OC)c(OC)c2)CCc2sc(NC(C)=O)nc2-3)cc1` in this test?
### Response FALSE

* * *

System: MDA-MB-468 breast
assay_remarks: NCI tumour cell line growth inhibition, 48 h
Readings of TGI for the listed compounds
Give the value in µM but do not write µM after it.

[[record]]
compound = "COc1ccc(-c2nocc2-c2cc(OC)c(OC)c(OC)c2)cc1"
quantity_name = "TGI"
measured_value = 18.6

[[record]]
compound = "COc1cc(NC(N)=NCCC(C)(C)c2ccc(C(F)(F)F)cc2)ncc1C#N"
quantity_name = "TGI"
measured_value = 2.8

[[record]]
compound = "Cc1ccc(NC(=O)c2nc(S(C)=O)oc2-c2ccc(F)cc2)cc1Nc1nccc(-c2cccnc2)n1 (configuration not stated)"
quantity_name = "TGI"
measured_value = 4.65

[[record]]
compound = "CC[C@]12CCCN3CC[C@]4(C(=C(C(=O)OC)C1)Nc1ccccc14)[C@@H]32"
quantity_name = "TGI"
measured_value = 28

[[record]]
compound = "CCCN1CCN(c2ccc3nc(-c4ccc5nc(-c6ccc(OCC)c(OCC)c6)[nH]c5c4)[nH]c3c2)CC1"
quantity_name = "TGI"
measured_value = 1.3

[[record]]
compound = "COc1cc2c3c(c4c5ccccc5[nH]c4c2c(OC)c1OC)C(=O)N(CCN1CCCCC1)C3=O"
quantity_name = "TGI"
measured_value = 19.2


### Prompt TGI for COc1cc(C2C(C#N)=C(N)Oc3cc(O)ccc32)cc(OC)c1OC (configuration not stated) ?
### Response 1.14
